B1: Transitional endoplasmic reticulum ATPase, residues 26 to 106; numbered along this chain, P55072 (parent)
chain: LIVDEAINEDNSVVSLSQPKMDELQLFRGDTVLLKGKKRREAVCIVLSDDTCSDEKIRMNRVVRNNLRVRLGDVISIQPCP

variants of: B1; test: abundance fitness (aPCA) (normalised: wild type 0, dead -1); higher = more abundant; growth selection in yeast, the domain comes from the species named; details: Homo sapiens
Rule: Yes for abundance fitness not less than -0.05, No for anything less.

# variant_descriptor, assigned_label
rows = [
    ("K56H", "No"),
    ("L16A", "No"),
    ("R58S", "No"),
]

Query: # bool: abundance fitness of P19Q >= -0.05
Response: Yes

Query: # bool: abundance fitness of A42Y >= -0.05
Response: Yes

Query: # bool: abundance fitness of V69A >= -0.05
Response: Yes

Query: # bool: abundance fitness of R64I >= -0.05
Response: No

Query: # bool: abundance fitness of Q25Y >= -0.05
Response: No

Query: # bool: abundance fitness of R40H >= -0.05
Response: No

Query: # bool: abundance fitness of E5H >= -0.05
Response: No

Query: # bool: abundance fitness of C44V >= -0.05
Response: Yes

Query: # bool: abundance fitness of D30H >= -0.05
Response: No

Query: # bool: abundance fitness of G29T >= -0.05
Response: No

Query: # bool: abundance fitness of C44F >= -0.05
Response: No

Query: # bool: abundance fitness of I75Q >= -0.05
Response: No

Query: # bool: abundance fitness of C80P >= -0.05
Response: Yes

Query: # bool: abundance fitness of D49G >= -0.05
Response: No

Query: # bool: abundance fitness of T31P >= -0.05
Response: No

Query: # bool: abundance fitness of P81R >= -0.05
Response: No

Query: # bool: abundance fitness of L26R >= -0.05
Response: No

Query: # bool: abundance fitness of L24K >= -0.05
Response: No

Query: # bool: abundance fitness of Q78D >= -0.05
Response: Yes

Query: # bool: abundance fitness of N66T >= -0.05
Response: Yes
